Numbers sourced from patent US20220008545A1.

- study_system: T1, fibroblast activation protein α (FAPα) (UniProt Q12884 26-760, limits assumed)
- T1 sequence (looked up): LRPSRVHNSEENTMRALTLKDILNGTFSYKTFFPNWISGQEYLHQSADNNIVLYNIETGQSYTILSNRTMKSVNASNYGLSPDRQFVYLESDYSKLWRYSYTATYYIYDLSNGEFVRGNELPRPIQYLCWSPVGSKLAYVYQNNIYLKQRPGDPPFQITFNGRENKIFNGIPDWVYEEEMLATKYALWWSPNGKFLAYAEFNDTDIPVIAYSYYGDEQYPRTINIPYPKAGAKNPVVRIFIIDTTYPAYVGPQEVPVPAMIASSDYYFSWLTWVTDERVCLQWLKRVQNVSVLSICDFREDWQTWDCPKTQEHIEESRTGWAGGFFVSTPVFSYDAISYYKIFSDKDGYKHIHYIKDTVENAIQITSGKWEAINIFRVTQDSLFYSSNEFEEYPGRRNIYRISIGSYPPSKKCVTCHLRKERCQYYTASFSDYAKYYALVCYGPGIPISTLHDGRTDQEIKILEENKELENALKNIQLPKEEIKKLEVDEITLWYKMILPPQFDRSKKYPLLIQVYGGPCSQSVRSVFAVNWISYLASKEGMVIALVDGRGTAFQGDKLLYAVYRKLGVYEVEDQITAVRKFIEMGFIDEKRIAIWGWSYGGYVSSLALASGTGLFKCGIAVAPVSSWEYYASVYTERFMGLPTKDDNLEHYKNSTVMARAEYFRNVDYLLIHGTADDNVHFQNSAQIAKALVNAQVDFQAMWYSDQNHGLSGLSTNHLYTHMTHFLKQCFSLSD
- assay_details: cell-based or functional assay
Starred links: 1 amine or outer side, 2 acyl side, 3 side chain; linkers in the order of their positions; H or OH if unused. Positions of bridges follow the written chain, without caps; N, C: chain ends. No end group written: not given here. TBMB = c1c(C[*:1])cc(C[*:3])cc1C[*:2]
List of FAPα Enzyme Inhibition IC50 values.
Give your result in µM as a bare value.

Solved entries:
ACHSDYLICPYGDFFCA (linker 2-9-16 via TBMB, all L-amino acids; also called CiHSDYLICiiPYGDFFCiii with N- and C-terminal Ala) [A-(SEQ ID NO: 1)-A]
1.33
ACDDCLISMRDACA (linker 2-5-13 via TBMB, all L-amino acids) [A-(SEQ ID NO: 4)-A]
16.7

Consider now this further binder.
Prompt: Which FAPα Enzyme Inhibition IC50 value is on record for ACPPTEYDCLIFFSECA (linker 2-9-16 via TBMB, all L-amino acids; also called CiPPTEYDCiiLIFFSECiii with N- and C-terminal Ala) [A-(SEQ ID NO: 3)-A] ?
Completion: 5.76
